system: BT-549; experiment: normalised viability (% of control), CellTiter-Blue; higher = more viable cells (about 100 = DMSO control); settings: 1000 nM; incubation time: 72 h
The entries below come with measured normalised viability values attached.
The reply should be a number in %, with the unit left off.

## Input Fill blank: measured normalised viability of the compound CN(C)C[C@@H]1CCn2cc(c3ccccc32)C2=C(C(=O)NC2=O)c2cn(c3ccccc23)CCO1 is ____.
## Output 87.6

## Input Would you mind telling me what normalised viability value was observed for O=C(O)CCCc1ccc(N(CCCl)CCCl)cc1 ?
## Output 102

## Input Entry CNNCc1ccc(C(=O)NC(C)C)cc1 has what normalised viability?
## Output 98.8

## Input Can you look up the measured normalised viability of COc1ccc(-c2ccc3c(N4CCOC[C@@H]4C)nc(N4CCOC[C@@H]4C)nc3n2)cc1CO for me?
## Output 18.7

----------
test system: HDQ-P1; assay: normalised viability (% of control), CellTiter-Blue; higher = more viable cells (about 100 = DMSO control); conditions: 30 nM; incubation time: 72 h
This listing pairs molecules with measured normalised viability.
Numbers only; they are read as %.

The following molecules have reported results that may help.
molecule: O=C(O)CCCc1ccc(N(CCCl)CCCl)cc1
normalised viability [%]: 94.1
--
molecule: Cn1cncc1[C@@](N)(c1ccc(Cl)cc1)c1ccc2c(c1)c(-c1cccc(Cl)c1)cc(=O)n2C
normalised viability [%]: 68
--
molecule: CN(C)CCN1C(=O)c2cccc3cc(N)cc(c23)C1=O [Amonafide]
normalised viability [%]: 104
--
molecule: COc1ccc(-c2ccc3c(N4CCOC[C@@H]4C)nc(N4CCOC[C@@H]4C)nc3n2)cc1CO
normalised viability [%]: 53.1

Now for a further molecule.
## Input Given the molecule CN1CCN(CCOc2cc(OC3CCOCC3)c3c(Nc4c(Cl)ccc5c4OCO5)ncnc3c2)CC1 , what is its reported normalised viability?
## Output 107

----------
tested on: CAL-85-1; experiment: normalised viability (% of control), CellTiter-Blue; higher = more viable cells (about 100 = DMSO control); settings: 300 nM; incubation time: 72 h
normalised viability: recorded values

Solved cases (4 shown):
molecule: CN(C)C[C@@H]1CCn2cc(c3ccccc32)C2=C(C(=O)NC2=O)c2cn(c3ccccc23)CCO1 [Ruboxistaurin]
normalised viability: 106%
--
molecule: CCCCCCCCc1ccc(CCC(N)(CO)CO)cc1 [Fingolimod]
normalised viability: 93.1%
--
molecule: Cn1cncc1[C@@](N)(c1ccc(Cl)cc1)c1ccc2c(c1)c(-c1cccc(Cl)c1)cc(=O)n2C [Tipifarnib]
normalised viability: 64%
--
molecule: CN1CCN(CCOc2cc(OC3CCOCC3)c3c(Nc4c(Cl)ccc5c4OCO5)ncnc3c2)CC1 [Saracatinib]
normalised viability: 88.6%

Consider now this further molecule.
## Input What does the record list as normalised viability for CC(C)(C#N)c1cc(Cn2cncn2)cc(C(C)(C)C#N)c1 [Anastrozole] ?
## Output 93.2%

----------
Below, each of the molecules is paired with its reported normalised viability value.
tested on: MDA-MB-468; experiment: normalised viability (% of control), CellTiter-Blue; higher = more viable cells (100 = DMSO, 0 = benzethonium chloride kill control); details: 1 nM; incubation time: 72 h
Express your answer in %, writing the number without its unit.

Below, each entry is followed by its recorded normalised viability result.
molecule: Cn1cncc1[C@@](N)(c1ccc(Cl)cc1)c1ccc2c(c1)c(-c1cccc(Cl)c1)cc(=O)n2C [Tipifarnib]
study system: MDA-MB-468
units of measure: %
normalised viability: 105

molecule: CC(C)(C#N)c1cc(Cn2cncn2)cc(C(C)(C)C#N)c1 [Anastrozole]
study system: MDA-MB-468
units of measure: %
normalised viability: 97.9

molecule: CN1CCN(CCOc2cc(OC3CCOCC3)c3c(Nc4c(Cl)ccc5c4OCO5)ncnc3c2)CC1 [Saracatinib]
study system: MDA-MB-468
units of measure: %
normalised viability: 104

molecule: O=C(O)CCCc1ccc(N(CCCl)CCCl)cc1 [Chlorambucil]
study system: MDA-MB-468
units of measure: %
normalised viability: 95.2

Please look at the following molecule next.
## Input Fill blank: measured normalised viability of the molecule CN(C)CCN1C(=O)c2cccc3cc(N)cc(c23)C1=O [Amonafide] is ____.
## Output 110
